Record: pIC50 reported on EPHA2 (Homo sapiens).
Sequence (P29317 24-976): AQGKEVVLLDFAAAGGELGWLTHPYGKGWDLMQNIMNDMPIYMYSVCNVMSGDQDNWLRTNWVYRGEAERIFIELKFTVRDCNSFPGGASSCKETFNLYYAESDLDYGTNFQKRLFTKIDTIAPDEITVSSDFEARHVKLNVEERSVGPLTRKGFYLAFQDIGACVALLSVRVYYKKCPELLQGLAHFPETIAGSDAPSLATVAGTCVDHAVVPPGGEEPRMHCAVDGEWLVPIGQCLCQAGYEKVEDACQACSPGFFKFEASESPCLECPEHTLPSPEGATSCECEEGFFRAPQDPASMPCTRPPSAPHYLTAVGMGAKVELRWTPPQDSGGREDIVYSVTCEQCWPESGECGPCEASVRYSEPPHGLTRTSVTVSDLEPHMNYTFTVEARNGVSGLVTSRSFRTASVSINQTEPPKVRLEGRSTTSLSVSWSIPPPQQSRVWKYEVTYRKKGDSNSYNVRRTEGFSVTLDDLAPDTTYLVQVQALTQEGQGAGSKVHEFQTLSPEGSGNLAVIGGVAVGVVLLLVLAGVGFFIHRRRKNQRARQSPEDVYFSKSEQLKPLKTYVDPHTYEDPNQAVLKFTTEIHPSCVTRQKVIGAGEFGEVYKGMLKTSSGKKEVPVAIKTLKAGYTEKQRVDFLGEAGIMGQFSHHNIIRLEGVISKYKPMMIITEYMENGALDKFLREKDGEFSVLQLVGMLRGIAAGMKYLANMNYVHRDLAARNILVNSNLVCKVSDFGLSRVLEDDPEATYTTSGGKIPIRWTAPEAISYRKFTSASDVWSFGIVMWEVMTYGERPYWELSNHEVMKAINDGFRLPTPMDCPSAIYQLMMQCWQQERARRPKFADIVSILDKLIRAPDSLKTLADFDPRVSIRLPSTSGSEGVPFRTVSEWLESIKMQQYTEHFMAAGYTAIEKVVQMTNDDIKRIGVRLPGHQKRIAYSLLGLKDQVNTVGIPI
Remember, pIC50 is on a log scale: it is -log10 of the molar concentration.

Previously resolved entries follow.
Molecule | System | Measured
COc1cc2nccc(Oc3ccc(NC(=O)C4(C(=O)Nc5ccc(F)cc5)CC4)cc3F)c2cc1Oc1ccc(N)cc1F | EPHA2 (Homo sapiens) | 7.68
COc1cc2nccc(Oc3ccc(NC(=O)C4(C(=O)Nc5ccc(F)cc5)CC4)cc3)c2cc1OC [Cabozantinib, reference compound] | EPHA2 (Homo sapiens) | 7.42

Ask: // lookup pIC50 | system=EPHA2 (Homo sapiens) | key= CNC(=O)c1cc2c(Oc3ccc(NC(=O)C4(C(=O)Nc5ccc(F)cc5)CC4)cc3)ccnc2cc1OC [Zanzalintinib, reference compound]
Reply: 7.28
